System: UACC-62 melanoma
Experiment: NCI-60 one-dose screen, 48 h
Settings: 10 µM unless noted
About 83,000 compounds went through this panel and 20% of them were active in at least one assay; those are over-represented in the sample as a whole. Active and inactive are the calls of the source. The calls were made as follows: active = growth percent below 10; inactive = the rest.
# valid calls are t (active), f (inactive); nothing else

Here are 5 compounds together with their reported answers.
- O=C(Nc1cccc(Br)c1)Oc1ccc(Cl)c2cccnc12: t
- c1ccc2c(c1)Nc1cc3ccccc3cc1N2: f
- OC(CNc1ccnc2cc(Cl)ccc12)CNc1ccnc2cc(Cl)ccc12: f
- COc1ccc(N=N/N=c2\sc3cc(OC)ccc3n2C)cc1: f
- NC(=O)/C=C/C(=O)c1c(Cl)cccc1Cl: t

Data request: Check the results log: what was the call for O=C1OCc2cccc3cccc1c23 ?
Data returned: f
